Field: inhibition. Provide a value for each of the molecules that follow.
# TEST_SYSTEM: Nuclear receptor subfamily 5 group A member 2 (Homo sapiens)
# METHOD: LRH-1 (NR5A2) inverse agonists, retest, confirmation, cell-based, luminescence (AID 651613);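 also: HEK293T cells co-transfected with LRH-1 and StAR promoter luciferase reporter; 0% = vehicle wells and 100% = parental cells lacking receptor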
# CONDITION: cell-based LRH-1 luciferase reporter, inverse agonism; at 3.6 µM; stronger effect = higher value
Numbered stars: 1 amine (or outer) side, 2 acyl side, 3 side chain; on linkers, the order of the positions; unused ones are H or OH. Bridge positions count the residues as written; N and C are the ends. Square brackets hold non-standard residues; d marks the D form. Peptide text beside a SMILES is read from it. ξ: configuration not given here. X1 = CC[C@H](CCC[C@@H](O)[C@@H](C)C(=O)O[C@H](C)[C@@H](C)C/C=C(C)/C(=C\C(=O)[*:1])OC)O[*:2]; NMeξIle = CC[C@H](C)C(NC)C(=O)O; NMeV = CN[C@H](C(=O)O)C(C)C; NMeS = CN[C@@H](CO)C(=O)O
Give bare numbers, in %.

Past entries and their recorded results:
Cc1ccc(C)c(NC(=O)CSc2nnc(-c3n[nH]c4ccccc34)o2)c1 = 58.9
C=CC(=O)N1C/C(=C/c2ccccc2)C(=O)/C(=C\c2ccccc2)C1 = 71.8
C#CCN(C[C@@H]1[C@@H](OC(=O)NCc2ccc(OC)c(OC)c2)[C@@H](OC(=O)NCc2ccc(OC)c(OC)c2)CN(C(=O)OC(C)C)N1C(=O)OC(C)C)S(=O)(=O)c1ccc(C)cc1 = 35.2

Answer for every listed entry: what is its inhibition? The entries follow.
1. CC[C@@H]1CCC[C@@H](O)[C@@H](C)C(=O)O[C@H](C)[C@@H](C)C/C=C(C)/C(OC)=C\C(=O)N(C)C([C@@H](C)CC)C(=O)N(C)[C@@H](C(C)C)C(=O)N(C)[C@@H](COC)C(=O)N2CCC[C@H]2C(=O)N(C)[C@@H](C(C)C)C(=O)N2CCC[C@H]2C(=O)O1 (some centres not stated) ([NMeξIle][NMeV][NMeS](Me)P[NMeV]P; linker N-C via X1)
2. O=[N+]([O-])c1ccc(N2CCCCC2)nc1N1CCCCC1
3. COc1cc(C=NO)nc(-c2ccccn2)c1

1: 104; 2: 54.5; 3: 96

Answer for every listed entry: what is its inhibition? The entries follow.
1. O=C(CN1C(=O)c2ccccc2S1(=O)=O)c1ccc(Cl)cc1Cl
2. Cc1cc([N+](=O)[O-])nn1Cc1ccc(C(=O)N/N=C/c2ccc(O)cc2O)cc1
3. Cc1ccc(S(=O)(=O)N(C)C)cc1NC(=O)c1cncc(Br)c1
4. O=C(O)C1CCCN1c1nc(-c2ccc(Cl)c(Cl)c2)cc(C(F)(F)F)n1 (configuration not stated)
5. Cc1cc(C)n(-c2nc(Nc3ccccc3C(F)(F)F)nc(-n3nc(C)cc3C)n2)n1
6. CC(=O)Nc1cc(-c2cccnc2)cn2c(-c3ccc(F)cc3)cnc12

55.3
97
43
97.4
21.6
51.7

----------
# Test system: transactivating tegument protein VP16 (Human herpesvirus 1), Gal4-VP16 luciferase reporter
# METHOD: VP16 transactivation inhibitors, counter-screen for SRC3 inhibitor project, cell-based, luminescence, high throughput (AID 588794)
# CONDITION: mammalian cells, VP16-driven luciferase reporter luminescence; at 3.6 µM; stronger effect = higher value
MEASURED_ATTRIBUTE: inhibition (%)
Numbers only, in %.

CCOC(=O)C(=CNc1ccc(NC2=NCC(C)S2)cc1)C(=O)OCC (configuration not stated) = 24.9

Answer for every listed entry: what is its inhibition? The entries follow.
1. CC(C)(C)OC(=O)N1Cc2ccccc2C[C@H]1C(=O)NCC(=O)Nc1ccc2c(c1)OCCO2
2. COc1cccc2[nH]c(=O)c(-c3ccccc3)cc12

1.92
-36.1

----------
# TEST_SYSTEM: Nuclear receptor coactivator 3 (Homo sapiens) (UniProt Q9Y6Q9)
# Sequence (Q9Y6Q9 whole entry, looked up): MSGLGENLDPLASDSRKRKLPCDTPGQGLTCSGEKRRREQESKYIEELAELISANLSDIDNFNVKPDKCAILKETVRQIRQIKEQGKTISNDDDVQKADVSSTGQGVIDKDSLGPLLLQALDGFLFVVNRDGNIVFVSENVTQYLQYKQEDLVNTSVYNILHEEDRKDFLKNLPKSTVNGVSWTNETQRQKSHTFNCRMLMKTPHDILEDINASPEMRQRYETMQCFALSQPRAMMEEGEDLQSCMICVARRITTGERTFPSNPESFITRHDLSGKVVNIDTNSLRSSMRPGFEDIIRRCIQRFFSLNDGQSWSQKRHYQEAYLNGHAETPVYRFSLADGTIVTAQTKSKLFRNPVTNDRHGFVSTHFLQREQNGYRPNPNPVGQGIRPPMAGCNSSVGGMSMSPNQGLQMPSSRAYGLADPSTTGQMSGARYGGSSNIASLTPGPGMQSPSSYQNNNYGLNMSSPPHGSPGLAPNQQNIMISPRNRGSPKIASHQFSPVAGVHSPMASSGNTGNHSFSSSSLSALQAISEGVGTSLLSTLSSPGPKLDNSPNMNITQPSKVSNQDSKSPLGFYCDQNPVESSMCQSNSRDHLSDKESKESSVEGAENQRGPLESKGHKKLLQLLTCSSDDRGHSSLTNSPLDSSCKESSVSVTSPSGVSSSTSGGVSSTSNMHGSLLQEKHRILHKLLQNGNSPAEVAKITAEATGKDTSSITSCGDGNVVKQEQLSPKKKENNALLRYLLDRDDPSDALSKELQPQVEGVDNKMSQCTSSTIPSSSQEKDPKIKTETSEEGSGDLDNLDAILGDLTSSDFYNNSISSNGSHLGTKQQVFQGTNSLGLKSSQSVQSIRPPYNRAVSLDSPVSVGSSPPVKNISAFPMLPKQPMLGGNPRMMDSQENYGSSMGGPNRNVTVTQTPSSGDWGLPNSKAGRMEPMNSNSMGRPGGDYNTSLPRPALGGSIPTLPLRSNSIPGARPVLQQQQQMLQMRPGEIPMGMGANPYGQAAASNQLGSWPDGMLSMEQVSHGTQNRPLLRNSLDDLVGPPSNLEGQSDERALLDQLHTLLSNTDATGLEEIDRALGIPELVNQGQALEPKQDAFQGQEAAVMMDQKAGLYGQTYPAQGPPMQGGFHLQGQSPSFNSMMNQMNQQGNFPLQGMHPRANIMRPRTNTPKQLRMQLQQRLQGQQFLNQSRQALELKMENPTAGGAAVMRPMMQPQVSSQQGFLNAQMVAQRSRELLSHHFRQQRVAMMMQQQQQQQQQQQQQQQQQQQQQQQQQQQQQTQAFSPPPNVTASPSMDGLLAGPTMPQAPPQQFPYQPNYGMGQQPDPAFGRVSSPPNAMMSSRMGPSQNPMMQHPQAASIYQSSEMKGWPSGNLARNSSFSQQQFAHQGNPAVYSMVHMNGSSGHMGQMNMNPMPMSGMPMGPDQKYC
# METHOD: SRC3 coactivator transcriptional activity inhibitors, confirmation, cell-based, luminescence, quadruplicate (AID 588792);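 also: 0% = DMSO treated cells and 100% = gossypol at 36 µM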
# CONDITION: HEK293 GAL4-SRC3 luciferase reporter, at 3.6 µM, stronger effect = higher value
Outcome label depends on inhibition relative to 10%: at/above gives label 1, below gives label 0.

Please review the entries below; each comes with its answer.
O=S(=O)(c1ccc(F)cc1)c1snnc1-c1ccccc1 = label 1
NC(=O)c1sc2nccc(Nc3ccccc3)c2c1N = label 1
COc1ccc(Nc2nc(-c3ccccc3)nc3ccccc23)cc1S(=O)(=O)N1CCOCC1 = label 0
Nc1cc(Cc2ccccc2)ccc1O = label 0

Quick check, inhibition >= 10%? Cc1cc(C)c[n+](C(C)C(=O)c2ccc(-c3ccccc3)cc2)c1 (configuration not stated)
label 1

Quick check, inhibition >= 10%? "O=C(Nc1ccc(N2CCN(C(=O)c3ccc(Cl)cc3)CC2)cc1)c1ccc2c(c1)OCCO2"
label 1

Quick check, inhibition >= 10%? "Cc1nn(C(C)(C)C)c(C)c1/C=N/OC(=O)Nc1ccc(Cl)c(Cl)c1"
label 1

----------
# TEST_SYSTEM: Photoreceptor-specific nuclear receptor (Homo sapiens) (UniProt Q9Y5X4)
# Sequence (Q9Y5X4 whole entry, looked up): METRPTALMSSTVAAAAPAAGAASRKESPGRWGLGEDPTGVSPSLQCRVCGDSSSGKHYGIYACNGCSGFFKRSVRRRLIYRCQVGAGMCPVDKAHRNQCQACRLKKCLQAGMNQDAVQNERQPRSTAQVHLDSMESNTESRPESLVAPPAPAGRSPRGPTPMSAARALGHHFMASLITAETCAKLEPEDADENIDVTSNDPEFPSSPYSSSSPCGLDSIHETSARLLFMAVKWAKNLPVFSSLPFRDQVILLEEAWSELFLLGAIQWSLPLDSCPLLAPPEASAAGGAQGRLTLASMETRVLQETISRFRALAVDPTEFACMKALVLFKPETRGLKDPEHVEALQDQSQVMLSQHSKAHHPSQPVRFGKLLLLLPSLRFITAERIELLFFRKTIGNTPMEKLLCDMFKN
# METHOD: NR2E3 agonist confirmation in cells, cell-based, luminescence, CHO-S two-hybrid (AID 624378);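 also: 0% = DMSO in NR2E3 cells and 100% = DMSO in cells lacking NR2E3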
# CONDITION: CHO-S mammalian two-hybrid NR2E3-NCOR, luciferase luminescence; at 3.98 µM
This is one part of the list. Calls of active or inactive are those of the source.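 Rule for the calls: active = average inhibition above a cutoff equal to the mean inhibition of all tested compounds plus one SD (cut at about 70% in these data); inactive = the rest.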
Outcome field: choose from true (1) = active, false (0) = inactive

Please review the entries below; each comes with its answer.
COc1cccc(CNc2nc(NCc3ccccc3OC)nc3ccsc23)c1 = true (1)
Cn1nccc1C(=O)NC1CCCc2c1cnn2-c1ccc(F)cc1F (stereo not drawn) = true (1)
O=C1C=C(c2ccnc3cc(Cl)ccc23)C[C@@H](c2ccc3c(c2)OCO3)C1 = true (1)
CCCNc1ncnc2sc(C)c(C)c12 = false (0)

GET /call?item= "COc1ccccc1CNc1nc(Nc2ccccc2Cl)c2sccc2n1" returns the recorded outcome of this test.
true (1)

GET /call?item= "O=C(Nc1nnc(-c2ccccc2)o1)c1cc(-c2cccs2)nc2ccccc12" returns the recorded outcome of this test.
true (1)

GET /call?item= "c1ccc(C(=NNc2nc3ccccc3s2)c2ccccn2)cc1" returns the recorded outcome of this test.
false (0)

GET /call?item= "COC(=O)c1sccc1NC(=O)CSc1ccccc1NS(=O)(=O)c1cc(Cl)ccc1Cl" returns the recorded outcome of this test.
true (1)

GET /call?item= "CCOC(=O)N1CCN(C(=O)C2CCN(c3ncnc4c3sc3cccc(F)c34)CC2)CC1" returns the recorded outcome of this test.
true (1)

GET /call?item= "Cc1ccc(NS(=O)(=O)c2ccc(-c3coc(C)n3)cc2)c(C)c1" returns the recorded outcome of this test.
false (0)

GET /call?item= "O=C(OC12CC3CC(CC(C3)C1)C2)c1ccc(NCc2cc(O)ccc2O)cc1" returns the recorded outcome of this test.
true (1)

GET /call?item= "Cc1oc2c(F)c(F)c(F)c(F)c2c1S(=O)(=O)Nc1cccc(C(F)(F)F)c1" returns the recorded outcome of this test.
true (1)

GET /call?item= "CCCc1cc(=O)[nH]c(SCC(=O)Nc2sc3c(c2C#N)CCCC3)n1" returns the recorded outcome of this test.
false (0)

----------
# TEST_SYSTEM: Nuclear receptor coactivator 2 (Homo sapiens) (UniProt Q15596)
# Sequence (Q15596 whole entry, looked up): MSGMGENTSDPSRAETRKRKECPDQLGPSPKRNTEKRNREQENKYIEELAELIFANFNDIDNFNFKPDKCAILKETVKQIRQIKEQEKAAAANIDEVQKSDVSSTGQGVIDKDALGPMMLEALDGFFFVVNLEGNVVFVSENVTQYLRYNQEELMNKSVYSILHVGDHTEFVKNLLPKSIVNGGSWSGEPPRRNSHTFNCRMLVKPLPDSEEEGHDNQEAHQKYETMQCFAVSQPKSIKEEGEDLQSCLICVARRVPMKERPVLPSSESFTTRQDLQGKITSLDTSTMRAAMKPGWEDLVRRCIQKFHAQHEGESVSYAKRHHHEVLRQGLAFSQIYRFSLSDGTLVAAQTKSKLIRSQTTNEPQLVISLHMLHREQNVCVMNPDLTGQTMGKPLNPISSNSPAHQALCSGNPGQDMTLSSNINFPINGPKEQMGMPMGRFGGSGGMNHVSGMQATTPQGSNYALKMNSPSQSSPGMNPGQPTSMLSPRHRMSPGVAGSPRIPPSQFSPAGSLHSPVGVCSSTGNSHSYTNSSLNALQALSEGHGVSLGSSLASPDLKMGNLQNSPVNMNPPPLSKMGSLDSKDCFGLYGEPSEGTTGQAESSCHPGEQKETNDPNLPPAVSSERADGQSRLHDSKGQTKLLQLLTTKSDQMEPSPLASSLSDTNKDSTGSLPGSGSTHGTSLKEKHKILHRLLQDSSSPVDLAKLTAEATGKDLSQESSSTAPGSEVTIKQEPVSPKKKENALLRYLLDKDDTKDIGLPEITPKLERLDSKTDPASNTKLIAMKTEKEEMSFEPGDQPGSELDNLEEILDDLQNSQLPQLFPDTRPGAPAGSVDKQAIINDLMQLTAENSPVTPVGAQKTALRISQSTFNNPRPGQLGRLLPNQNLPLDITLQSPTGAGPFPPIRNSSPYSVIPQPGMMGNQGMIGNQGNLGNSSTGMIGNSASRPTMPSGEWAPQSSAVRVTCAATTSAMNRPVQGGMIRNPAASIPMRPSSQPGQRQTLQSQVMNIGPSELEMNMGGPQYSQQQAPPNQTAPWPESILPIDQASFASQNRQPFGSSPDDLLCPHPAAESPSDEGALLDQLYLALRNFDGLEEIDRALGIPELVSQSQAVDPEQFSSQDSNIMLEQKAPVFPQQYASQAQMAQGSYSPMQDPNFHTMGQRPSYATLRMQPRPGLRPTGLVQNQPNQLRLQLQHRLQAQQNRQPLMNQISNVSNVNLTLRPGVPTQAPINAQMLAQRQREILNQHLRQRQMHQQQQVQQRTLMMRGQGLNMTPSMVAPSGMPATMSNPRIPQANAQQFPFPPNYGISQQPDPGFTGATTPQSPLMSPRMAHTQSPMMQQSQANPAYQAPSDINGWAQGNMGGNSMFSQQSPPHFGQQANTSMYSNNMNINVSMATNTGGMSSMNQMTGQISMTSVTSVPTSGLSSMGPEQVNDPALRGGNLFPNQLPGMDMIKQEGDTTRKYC
# METHOD: SRC2 coactivator transcriptional activity inhibitors, confirmation, cell-based, luminescence, HEK293, triplicate (AID 652008);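 also: 0% = DMSO-treated cells and 100% = Gossypol at 36 µM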
# CONDITION: HEK293 GAL4-SRC2 luciferase reporter, at 8.9 µM
Activity calls are given as the source filed them.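 How the source made its calls: active means mean inhibition above 46.5%, the solvent-only control mean plus 3 SD; inactive means the rest.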
Outcome field: choose from 1.0 = active, 0.0 = inactive

GET /call?item= "CN(Cc1ccc(Cl)s1)C(=O)CCl" returns the recorded outcome of this test.
0.0

GET /call?item= "O=C(NCc1ccco1)/C(=C/c1cccc([N+](=O)[O-])c1)NC(=O)c1ccco1" returns the recorded outcome of this test.
0.0

GET /call?item= "CCN1CCCc2cc(CN(CCN3CCOCC3)C(=S)Nc3ccccc3OC)ccc21" returns the recorded outcome of this test.
0.0

GET /call?item= "CCCC1=Nc2cc(C(=O)NCCCOCC)ccc2Sc2ccccc21" returns the recorded outcome of this test.
0.0

GET /call?item= "NC(=O)c1ccsc1NC(=O)COC(=O)c1ccc([N+](=O)[O-])o1" returns the recorded outcome of this test.
0.0

GET /call?item= "Cc1ccc2occ(/C=N/NC(=O)[C@@H](N)Cc3ccccc3)c(=O)c2c1" returns the recorded outcome of this test.
0.0

----------
# Test system: Nuclear hormone receptor DAF-12 (Haemonchus contortus)
# METHOD: H. contortus DAF-12 receptor agonists, confirmation, cell-based, luminescence, HEK293, lit1-tk-luc, triplicate (AID 743032);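 also: 0% = DMSO only wells and 100% = 3 µM Δ7-dafachronic acid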
# CONDITION: HEK293 hcDAF-12 lit1-tk-luc reporter, at 6.8 µM, stronger effect = higher value, % of Δ7-dafachronic acid response
This is one part of the list.
Outcome label depends on activation relative to 7%: at/above gives YES, below gives NO.

Quick check, activation >= 7%? "CC(C)CC(=O)N/C(N)=N/c1nc2ccccc2s1"
NO

Quick check, activation >= 7%? "COc1ccccc1NC(=O)c1ccc(C)s1"
YES
